Tested on: CAMK1
condition_details: concentration: 1 μM, replicates: in singlicate; n = 1;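 note: KINOMEscan kinase panel screen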
endpoint_label: %Inh (%)
All answers are understood in %, so give the number only.

compound="COc1cccc(-c2nc(-c3ccccc3)[nH]c2-c2ccncc2)c1 [SB-610250]" result_number=1
compound="O=C(Nc1c(F)cccc1F)c1cc(C(=O)c2ccccc2F)c[nH]1 [GSK1326180]" result_number=17
compound="O=C(O)C(F)(F)F.O=c1[nH]ccc2nc(N[C@@H]3CCNC3)nc(Nc3cc(Cl)cc(Cl)c3)c12 [GSK2188764]" result_number=84
compound="O=C1NC(=O)C(c2ccccc2Cl)=C1Nc1cccc(Cl)c1 [SB-342409]" result_number=0

Quick one: %Inh of NCCC(NC(=O)c1cc(Br)c(-c2ccnc3[nH]ccc23)s1)c1ccccc1.O=C(O)C(F)(F)F.O=C(O)C(F)(F)F (centres unmarked) [GSK1307810] ?
43

----------
Here, each record is paired with measured %Inh data.
System: ERN1
condition_details: concentration: 1 μM, replicates: in singlicate; n = 1
Numbers only here, please. The scale is %.

molecule="Cl.Cl.NCC(NC(=O)c1cc(-c2cccnc2)c(-c2ccnc3[nH]ccc23)s1)c1ccccc1 (stereo not drawn) [GSK1323434]" target_system=ERN1 result_number=6

Which %Inh is listed for CCn1cnc2c(NCc3ccccc3)ncnc21 [SKF-96418] ?
19

// same read-out, input: Cl.N#CCc1ccc(Nc2nccc(Nc3ccc(Oc4ccccc4)cc3)n2)cc1 [GW639905]
10

Next: Nc1ncnc2scc(-c3ccc(NC(=O)Cc4cc(F)ccc4F)cc3)c12.O=C(O)C(F)(F)F [SB-731254-M]
34

Do the same for CCNc1nccc(-c2c(-c3ccc(F)cc3)ncn2C2CCN(C)CC2)n1 please
100

What do you have for Cc1ccc(NC(=O)c2ccnc(N3CCCCC3)c2)cc1-c1ccc(C(=O)NCC2CC2)cc1 [GW775610] ?
70

And COc1cccc(NC(=O)NCCNc2ccnc(Nc3ccc(F)cc3)n2)c1 [GSK1379879] ?
0

Next entry: COc1ccc(NC(=O)c2ccoc2)cc1-c1ccc(C(=O)NCC2CC2)cc1 [GW810437]
33

# iterate: Cn1cc(-c2ccc3c(c2)CCN3C(=O)Cc2cc(F)cc(F)c2F)c2c(N)ncnc21 [GSK2634140]
11

Next entry: COc1cccc(CC(=O)N2CCc3cc(-c4cn(C)c5ncnc(N)c45)ccc32)c1 [GSK2608899]
19

Next up: O=C(Nc1n[nH]c2nc(-c3ccccc3O)ccc12)C1CC1 [SB-711880]
0

Param item: Cc1cccc(Nc2nc(NCCN)ncc2C(N)=O)c1 [GSK1292139]
16

Now consider CNc1nccc(-c2ccc3c(N)n[nH]c3c2)n1 [GSK2206003] and answer again.
4

Please answer likewise for COc1cccc2c(-c3ccncc3)c(-c3ccc(F)cc3)nn12 [GW468513]
0

Same for Cn1cc(-c2ccc3c(c2)CCN3C(=O)Cc2cc(F)cc(C(F)(F)F)c2)c2c(N)ncnc21 [GSK2635225]
6

Another molecule to look at: COc1ccc(C2=C(Nc3cccc(O)c3)C(=O)NC2=O)cc1 [SB-390766]
20

// next record CN(c1ccc(NC(=O)N2CCN(CCCN3CCOCC3)CC2)cc1)c1ccnc(Nc2ccc(CS(C)(=O)=O)cc2)n1.Cl [GW830899]
0

// same read-out, input: Nc1ncc(-c2ccc3nccc(-c4ccncc4)c3c2)cc1S(=O)(=O)N1CCCCC1 [GSK1693850]
1

----------
Test system: NDR2
condition_details: concentration: 1 μM, replicates: in singlicate; n = 1
%Inh listing for selected molecules.
A number alone suffices; assume %.

Worked cases, answers included:
given_smiles=Cn1cc(-c2ccc3c(c2)CCN3C(=O)Cc2cc(F)cc(C(F)(F)F)c2)c2c(N)ncnc21 endpoint_label=%Inh unit_tag=% result_number=13
given_smiles=Fc1cc(Cl)ccc1Nc1ccnc2cc(-c3ccc(CN4CCSCC4)o3)ccc12 endpoint_label=%Inh unit_tag=% result_number=31
given_smiles=CCn1cnc2c(NCc3ccccc3)ncnc21 endpoint_label=%Inh unit_tag=% result_number=14

Could you now consider this next molecule?
Report %Inh for CC(C)c1nc(-c2cccc(NS(=O)(=O)c3c(F)cccc3F)c2)c(-c2ccnc(Nc3ccc(N4CCOCC4)nc3)n2)s1.Cl please.
0

----------
Tested on: NEK11
condition_details: concentration: 1 μM, replicates: in singlicate; n = 1
endpoint_label: %Inh (%)
Give the quantity in %, number only.

molecule=CN(c1ccc(NC(=O)N2CCN(CCCN3CCOCC3)CC2)cc1)c1ccnc(Nc2ccc(CS(C)(=O)=O)cc2)n1.Cl result_number=0
molecule=O=C(Nc1n[nH]c2nc(-c3ccccc3)ccc12)C1CC1 result_number=36
molecule=COC(=O)Nc1nc2ccc(Oc3ccc(NC(=O)Nc4cc(C(F)(F)F)ccc4F)cc3)cc2[nH]1.Cl result_number=0
molecule=CC(C)c1nc(-c2cccc(NS(=O)(=O)c3c(F)cccc3F)c2)c(-c2ccnc(Nc3ccc(N4CCOCC4)nc3)n2)s1.Cl result_number=97.8
molecule=Cc1ccc(NC(=O)c2ccc(Cl)c(Cl)c2)cc1-c1ccc(C(=O)Nc2ccncc2)cc1 result_number=0

# %Inh lookup, item Cl.O=C(Nc1ccc(Oc2ccc3[nH]c(NC(=O)c4ccco4)nc3c2)cc1)Nc1cc(C(F)(F)F)ccc1F
0

Further, for CS(=O)(=O)c1cccc(CNc2nc(Nc3ccc4c(c3)CCC(=O)N4)ncc2C(F)(F)F)c1 ?
0

----------
Recorded %Inh for the following molecules
Test system: TRKB
condition_details: concentration: 1 μM, replicates: in singlicate; n = 1
Give a bare numeral; the unit % is implied.

Solved entries (count: 3):
molecule=COc1cc(Nc2nccc(N3CCC(NS(=O)(=O)c4ccc(NC(C)=O)cc4)CC3)n2)cc(OC)c1OC endpoint_label=%Inh result_number=27
molecule=CN1CCN(Cc2ccc(NC(=O)Nc3ccc(N(C)c4ccnc(Nc5ccc(CS(C)(=O)=O)cc5)n4)cc3)cc2)CC1.Cl endpoint_label=%Inh result_number=92
molecule=COc1cccc(C2=C(Nc3cccc(O)c3)C(=O)NC2=O)c1 endpoint_label=%Inh result_number=0

Which %Inh value belongs to Cc1ccc(Nc2ccnc(Nc3ccc(C)c(F)c3)n2)cc1O.Cl ?
50

Do the same for COc1cc(Nc2nccc(N3CCC(NC(=O)Nc4ccc5c(c4)OCO5)C3)n2)cc(OC)c1OC (centres unmarked) please
43

Item: COc1ccc(C2=C(Nc3cccc(O)c3)C(=O)NC2=O)cc1
41

// query: CN(c1ccc(NC(=O)Nc2cccc(Cl)c2)cc1)c1ccnc(N)n1.Cl
45

Same read-out for Cl.N#CCc1ccc(Nc2nccc(Nc3ccc(Oc4ccccc4)cc3)n2)cc1 ?
39

Record: CCNc1nccc(-c2c(-c3ccc(F)cc3)ncn2C2CCN(C)CC2)n1
0

Repeat for the following molecule: Cc1cccc(Nc2nc(N[C@H]3CCCC[C@H]3N)ncc2C(N)=O)c1.Cl
55

Same question for Cc1ccc(NC(=O)c2ccc(Cl)c(Cl)c2)cc1-c1ccc(C(=O)Nc2ccncc2)cc1 please.
0

----------
Test system: GSK3A
condition_details: concentration: 1 μM, replicates: in singlicate; n = 1
// reported %Inh for each item listed
Field format: number, assumed %, no unit text.

Worked cases, answers included:
compound="Cn1cc(-c2ccc3c(c2)CCN3C(=O)Cc2cc(F)cc(C(F)(F)F)c2)c2c(N)ncnc21 [GSK2635225]" endpoint_label=%Inh result_number=8
compound=N#CC1(c2cccc(C(=O)Nc3cccc(Oc4ccc5nc(NC(=O)C6CC6)sc5n4)c3)c2)CC1 endpoint_label=%Inh result_number=24
compound="Cc1ccc(C)c(NC(=O)Nc2ccc(C)c(-c3ccc(C(=O)Nc4ccncc4)cc3)c2)c1 [GSK1398473]" endpoint_label=%Inh result_number=0

// returns reported %Inh for input Nc1cccc(-c2ccc3c(N)n[nH]c3c2)c1 [GSK2193613]
0

Then COc1cccc(NC(=O)NCCNc2ccnc(Nc3ccc(F)cc3)n2)c1 [GSK1379879] ?
11

Moving on to the next compound: COc1cc(Nc2ccnc3cc(-c4ccncc4)ccc23)cc(OC)c1OC.Cl [GW494610]
10

Again, but for CC(C)c1nc(-c2cccc(NS(=O)(=O)c3c(F)cccc3F)c2)c(-c2ccnc(Nc3ccc(N4CCOCC4)nc3)n2)s1.Cl [GSK1723980]
74

Next: Cc1cccc(Nc2nc(N[C@H]3CCCC[C@H]3N)ncc2C(N)=O)c1.Cl [GSK986310]
24

----------
Test system: CSNK1A1L
condition_details: concentration: 1 μM, replicates: in singlicate; n = 1
endpoint_label: %Inh
Returns: string containing the number followed by the unit.

Examples from the recorded data:
compound="Cn1cc(-c2ccc3c(c2)CCN3C(=O)Cc2cc(F)cc(C(F)(F)F)c2)c2c(N)ncnc21 [GSK2635225]" result=1%
compound="COC(=O)Nc1nc2cc(Oc3ccc(NC(=O)Nc4cccc(SC)c4)cc3)ccc2[nH]1.Cl [GW697999]" result=6%
compound="Cc1ccc(O)cc1Nc1ccnc2ccc(C(C)(C)C)cc12 [GW856805]" result=20%
compound="COc1cc(Nc2nccc(N3CCC(NC(=O)Nc4ccc5c(c4)OCO5)C3)n2)cc(OC)c1OC (centres unmarked) [GSK1379766]" result=0%
compound="O=C(O)C(F)(F)F.O=c1[nH]ccc2nc(N[C@@H]3CCNC3)nc(Nc3ccc4c(c3)S(=O)(=O)CC4)c12 [GSK2181306]" result=90%

Look up %Inh: COc1cc(Nc2nccc(N3CCC(NS(=O)(=O)c4ccc(NC(C)=O)cc4)CC3)n2)cc(OC)c1OC [GSK1379825]
3%

Also O=C(Nc1c(F)cccc1F)c1cc(C(=O)c2ccccc2F)c[nH]1 [GSK1326180] , if possible.
5%

Next entry: COc1cccc(C2=C(Nc3cccc(O)c3)C(=O)NC2=O)c1 [SB-390771]
10%

Query CS(=O)(=O)c1cccc(CNc2nc(Nc3ccc4c(c3)CCC(=O)N4)ncc2C(F)(F)F)c1 next
0%

And then CN(C)CCOc1ccc(-c2cc(-c3ccc(Cl)c(O)c3)c(-c3ccncc3)[nH]2)cc1.Cl.Cl [SB-684387] , what is it?
2%

Do the same for c1ccc(Oc2ccc(Nc3ccnc4cc(-c5ccc(CN6CCCCC6)o5)ccc34)cc2)nc1 [GW567143] please
12%

Consider next the compound CC(C)(C)c1ccc(C(=O)Nc2cn3cc(-n4ccnc4)ccc3n2)cc1 in the same way.
34%

Further, for O=C(Nc1n[nH]c2nc(-c3ccccc3O)ccc12)C1CC1 [SB-711880] ?
76%

// query: Cc1ccc(O)cc1Nc1ccnc2cc(-c3ccc(CN4CCCCC4)o3)ccc12 [GW557777]
44%

Another: Cc1ccc(-c2ccc3occ(-c4ccc(S(C)=O)cc4)c3c2)nn1 (centres unmarked)
0%

Same for COc1ccc(NC(=O)c2ccoc2)cc1-c1ccc(C(=O)NCC2CC2)cc1 [GW810437]
8%

// next record Cc1ccc(NC(=O)c2ccnc(N3CCCCC3)c2)cc1-c1ccc(C(=O)NCC2CC2)cc1 [GW775610]
20%

Cited source: paper PMC5540273
